measured_on: CD28, endogenously expressed on Jurkat/IL2 reporter cells (human) (UniProt P10747)
assay_explanation: flow cytometry on Jurkat (CD28) cells; MFI relative to WT CD80 (CD80 WT IgV-Fc = 1.0)
endpoint_label: Fold change to WT CD80 (fold)

(1) variant CD80 IgV-Fc E35D/D46E/M47I (Fc fusion) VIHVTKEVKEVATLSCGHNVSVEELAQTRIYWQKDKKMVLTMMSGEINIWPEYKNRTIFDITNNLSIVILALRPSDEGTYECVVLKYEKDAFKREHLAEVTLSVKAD
(2) variant CD80 IgV-Fc E35D/M47L/A71G/L85M (Fc fusion) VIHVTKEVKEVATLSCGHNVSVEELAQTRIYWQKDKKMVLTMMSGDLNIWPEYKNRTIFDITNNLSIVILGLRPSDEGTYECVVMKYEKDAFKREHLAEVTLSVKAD
Lookup: Hi there! Just curious which has the higher Fold change to WT CD80 between 1 and 2 . Answer by stating the label of the chosen item.
Found: 1
